Tested target: UT receptors in HSMM (Human Skeletal Muscle Myoblasts) (Homo sapiens)
Assay summary: Human Radioligand Binding Assay ((^125I)-U-II binding to intact HSMM)
pKi: −log10 of the molar value.

Compound | Tested target | pKi
CCN1CCN(c2cccc3c2CN(C(c2ccc(OC)c(OC)c2)C2CCN(Cc4ccccc4)CC2)C3=O)CC1 (stereo not drawn) | UT receptors in HSMM (Human Skeletal Muscle Myoblasts) (Homo sapiens) | < 6.52
COc1ccc([C@@H](CCCNc2nccc(C(F)(F)F)n2)N2Cc3c(cccc3N3CCN(C4CC4)CC3)C2=O)cc1OC | UT receptors in HSMM (Human Skeletal Muscle Myoblasts) (Homo sapiens) | < 6.52
CCN1CCN(c2cccc3c2CN([C@H](CCCOCc2c(F)cccc2F)c2ccc(OC)c(OC)c2)C3=O)CC1 | UT receptors in HSMM (Human Skeletal Muscle Myoblasts) (Homo sapiens) | < 6.52

* * *

Tested target: rat GPR14 (U-II receptor) (Rattus norvegicus, UniProt P49684)
Sequence (P49684 whole entry): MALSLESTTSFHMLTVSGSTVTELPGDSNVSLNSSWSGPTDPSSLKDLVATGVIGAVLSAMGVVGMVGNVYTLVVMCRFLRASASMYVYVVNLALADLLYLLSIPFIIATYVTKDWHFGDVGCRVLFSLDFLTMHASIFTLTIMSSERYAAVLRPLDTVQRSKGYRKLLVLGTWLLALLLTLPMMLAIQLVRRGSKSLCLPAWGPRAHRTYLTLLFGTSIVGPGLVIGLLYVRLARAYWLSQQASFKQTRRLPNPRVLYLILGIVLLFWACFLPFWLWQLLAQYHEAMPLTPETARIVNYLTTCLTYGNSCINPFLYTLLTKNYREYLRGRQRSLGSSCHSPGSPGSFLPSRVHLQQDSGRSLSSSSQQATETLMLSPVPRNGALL
Assay summary: Rat UII Calcium Mobilization FLIPR Assay
Applied conditions: CHO cells transfected with rat GPR14; antagonist activity after 5 min incubation vs agonist (Ac)-CFWK(2-NaI)C-NH2 at 1 nM
pIC50: −log10 of the molar value.
Reported pIC50 is given for each of the following compounds.
Metric: pIC50

Compound | Result number
CCN1CCC(c2cccc3c2CN([C@H](CCCN(C)S(=O)(=O)c2cccs2)c2ccc(OC)c(OC)c2)C3=O)CC1 | 7.49
CCN1CCN(c2cccc3c2CN([C@H](CCCn2cc(C)nc2C)c2ccc(OC)c(OC)c2)C3=O)CC1 | 7.03
CCN1CCN(c2cccc3c2CN(C(c2cccc(NCc4ccccc4)c2)c2ccc(OC)c(OC)c2)C3=O)CC1 (stereo not drawn) | 6.86
CCN1CCN(c2cccc3c2CN([C@H](CCCNc2ccc4ccccc4n2)c2ccc(OC)c(OC)c2)C3=O)CC1 | 6.59
CCN1CCN(c2cccc3c2CN([C@H](CCCNc2nccc(Cl)n2)c2ccc(OC)c(OC)c2)C3=O)CC1 | 9.00
CCN1CCN(c2cccc3c2CN([C@H](CCCn2ccnc2C(C)C)c2ccc(OC)c(OC)c2)C3=O)CC1 | 7.80
CC[N+]1(C)CCN(c2cccc3c2CN([C@H](CCCN(Cc2ccccc2)Cc2ccccc2)c2ccc(OC)c(OC)c2)C3=O)CC1 | 6.73
CCN1CCN(c2cccc3c2CN([C@H](CCCNC(=O)c2ccncc2)c2ccc(OC)c(OC)c2)C3=O)CC1 | 7.09
COc1ccc([C@@H](CCCN(C)S(=O)(=O)c2cccs2)N2Cc3c(cccc3N3CCN(C4CC4)CC3)C2=O)cc1OC | 7.89

* * *

Tested target: Human UII (U-II receptor) in 6D9 human rhabdomyosarcoma cells (Homo sapiens, UniProt Q9UKP6)
Construct: 6D9: isolated by dilution subcloning of RMS13 cells, ATCC® Number: CRL-2061; host or cells: 6D9 human rhabdomyosarcoma cells (subclone of RMS13)
Sequence (Q9UKP6 whole entry): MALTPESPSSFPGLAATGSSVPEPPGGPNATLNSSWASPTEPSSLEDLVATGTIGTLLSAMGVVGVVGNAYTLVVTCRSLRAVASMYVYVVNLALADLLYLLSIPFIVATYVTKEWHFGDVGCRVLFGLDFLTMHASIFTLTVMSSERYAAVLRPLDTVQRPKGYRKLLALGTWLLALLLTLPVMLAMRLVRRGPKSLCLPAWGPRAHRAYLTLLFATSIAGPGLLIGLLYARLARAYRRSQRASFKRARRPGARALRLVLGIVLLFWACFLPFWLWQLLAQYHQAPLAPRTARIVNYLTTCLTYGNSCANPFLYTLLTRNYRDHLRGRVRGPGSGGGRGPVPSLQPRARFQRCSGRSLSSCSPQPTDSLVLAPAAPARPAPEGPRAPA
Assay summary: Human UII Calcium Mobilization Assay
Format: cell-based
Applied conditions: 6D9 human rhabdomyosarcoma cells, FLIPR TETRA, average; read-out: Human UII Ca+ Mobilization Average IC50
pIC50: −log10 of the molar value.

Molecule | Relation operator | pIC50
CCNCCC[C@H](c1ccc(OC)c(OC)c1)N1Cc2c(cccc2N2CCN(CC)CC2)C1=O | < | 5.00
COc1ccc([C@@H](CCCn2ccnc2)N2Cc3c(cccc3N3CCNCC3)C2=O)cc1OC | < | 5.00
CCN1CCN(c2cccc3c2CN([C@H](CCCOCc2c(F)cccc2F)c2ccc(OC)c(OC)c2)C3=O)CC1 | < | 5.00
CCN1CCN(c2cccc3c2CN([C@H](CCCNc2nccc(C)n2)c2ccc(OC)c(OC)c2)C3=O)CC1 | = | 6.50
CCN1CCN(c2cccc3c2CN([C@H](CCCNc2c(N)c(=O)c2=O)c2ccc(OC)c(OC)c2)C3=O)CC1 | = | 6.17
COc1ccc([C@@H](CCCNc2nccc(C(F)(F)F)n2)N2Cc3c(cccc3N3CCN(Cc4ccccc4)CC3)C2=O)cc1OC | = | 6.07
CCc1ccnc(NCCC[C@H](c2ccc(OC)c(OC)c2)N2Cc3c(cccc3N3CCN(CC)CC3)C2=O)n1 | = | 6.31
CCN1CCN(c2cccc3c2CN([C@H](CCCOCc2cccc(F)c2)c2ccc(OC)c(OC)c2)C3=O)CC1 | < | 5.00
CCN1CCC(C(c2ccc(OC)c(OC)c2)N2Cc3c(cccc3N3CCN(CC)CC3)C2=O)CC1 (stereo not drawn) | < | 5.00
